test: Inhibition of secretory PLA2 activity in bee venom enzyme using [3H]oleate labelled membranes at a concentration of 10 uM
MEASUREMENT LABEL: pIC50
Note on pIC50: it is the negative log10 of concentration, concentration in mol/L.

IN: Give me measured pIC50, please, for this compound: CCCCCCCCCCCCCCC(CO)NCC (configuration not stated) [2-Ethylamino-hexadecan-1-ol]
OUT: 5.21

IN: Item CCCCCCCCCCCCCCC(N)CN(CC)CC (configuration not stated) [N*1*,N*1*-Diethyl-hexadecane-1,2-diamine] : provide pIC50
OUT: 4.96

* * *

assay: Inhibition of secretory PLA2 activity in Naja naja venom enzyme using [3H]oleate labelled membranes at a concentration of 10 uM
MEASUREMENT LABEL: IC50

IN: Given the compound CCCCCCCCCCCCCCC(N)CN(CC)CC (stereo unspecified) , write its reported IC50.
OUT: 9.5 µM
